STUDY TARGET: the molecule itself
METHOD SUMMARY: sizes of crystals observed in the pellet; negative-stain EM (self-assembly)
PROPERTY LABEL: binding result

PROTEIN	RECORDED RESULT
p6_9 E188H, D29A (designed binder, not shown: small tags and cut ends, p6_9H with the gene-synthesis mutation A29D reverted) MGFQGPLGSHMTISPKEKEKIAIHEAGHALMGLVSDDDDKVHKISIIPRGMALGVTQQLPIEDKHIYDKKDLYNKILVLLGGRAAEEVFFGKDGITTGAENDLQRATDLAYRMVSMWGMSDKVGPIAIRRVANPFLGGMTTAVDTSPDLLREIDEEVKRIITEQYEKAKAIVEEYKLPLKFVVAALLHSETILCSLFAEVFKTFGIELKDKCKKEELFDKDRKSEENKELKSEEVKEEVV	binds
